Assay: TLR3 IRF3 reporter activation blockers – cell-based, poly I:C stimulus, luciferase, 10K MLSCN set, primary screen (AID 602277)
Conditions: HEK293-TLR3 RL24 IRF3 luciferase reporter, at 10 µM, stronger effect = higher value
Quick reference for inhibition among some molecules
Entry rule: numbers only, all in %.

Consider the worked cases shown below.
Cn1nc(C(C)(C)C)cc1C(=O)NCc1ccc(N2CCCC2=O)cc1 -37.1
COc1ccc(-c2nnc(SCC(=O)N3CCCCC3)o2)cc1OC 15.9

Return reported inhibition; argument: O=C(COC(=O)CCOc1ccccc1)Nc1ccc(Cl)cn1
8.02

###

Molecular target: Voltage-gated potassium channel subunit beta-2 (Rattus norvegicus) (UniProt P62483)
Sequence (P62483 whole entry, looked up): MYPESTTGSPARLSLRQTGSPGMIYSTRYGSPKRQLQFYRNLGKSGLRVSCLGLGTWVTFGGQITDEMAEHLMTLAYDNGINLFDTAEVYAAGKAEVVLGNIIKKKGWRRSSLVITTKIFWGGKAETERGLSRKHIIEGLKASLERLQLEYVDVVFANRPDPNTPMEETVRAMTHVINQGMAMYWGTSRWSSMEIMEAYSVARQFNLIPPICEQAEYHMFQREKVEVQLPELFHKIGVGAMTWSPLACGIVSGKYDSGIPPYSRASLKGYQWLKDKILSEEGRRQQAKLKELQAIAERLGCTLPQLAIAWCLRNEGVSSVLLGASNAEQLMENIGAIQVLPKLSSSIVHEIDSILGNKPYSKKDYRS
Assay: inhibitors of rat Kvbeta2 reductase activity – biochemical, NADPH fluorescence, primary screen (AID 622);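 note: slope of raw intensity against log time taken from 70 to 1610 s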
Details: recombinant KvBeta, 4-cyanobenzaldehyde reduction, at 10 µM, stronger effect = higher value
Mark condition not met for fluorescence slope values under -0.5, and condition met for everything at or above.

compound	discrete_label
Cc1cc(C)cc(OCCCC(=O)O)c1	condition not met
CCCn1c(SCC(=O)NCc2ccco2)nc2c1c(=O)n(C)c(=O)n2C	condition met
O=C1c2ccccc2C(=O)N1c1cccc(-c2nc3ccccc3o2)c1	condition met
Cc1occc1-c1nnc(SCC(=O)NCC2CCCO2)n1C (stereo unspecified)	condition not met
COc1cc(C2C(C(=O)c3ccc(C)o3)=C(O)C(=O)N2c2cc(C)on2)cc(Br)c1O (stereo unspecified)	condition not met
O=C(c1cnc2sccn2c1=O)N1CCc2ccccc2C1	condition met
Cc1noc(NS(=O)(=O)c2ccc(NC(=O)CCC3CCCC3)cc2)c1C	condition not met
CCOc1ccc2[nH]cc(C(=O)N3CCN(CC)CC3)c(=O)c2c1	condition not met
CCn1c(C(Cc2ccccc2)NC(=O)COC)nc2ccccc21 (stereo unspecified)	condition not met
COc1ccc(-c2nnc3sc(C(C)N4C(=O)c5ccccc5C4=O)nn23)cc1 (stereo unspecified)	condition met

Confirm if fluorescence slope reported for the compound O=C(Nc1nc(-c2ccccc2)cs1)C1CCCCN1S(=O)(=O)c1ccccc1 (stereo unspecified) is -0.5 or above.
condition not met

Thanks! And COc1cc(NC(=O)C2CC(c3cccc(OC)c3OC)=NO2)cc(OC)c1OC (stereo unspecified) ?
condition not met

###

Experiment: reduction of polyQ htt aggregates in cells – imaging, exon1htt(103Q)mCFP cells, high-content imaging, primary screen (AID 483);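 note: compound exposure lasted 3 days before fixation; percent of the per-plate median nuclei count of sample wells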
Settings: exon1htt(103Q)mCFP cell line, aggregate imaging, at 2 µM; measured here: cell count, toxicity
measurement_name: nuclei count (%)
Record the value in %, omitting the unit from your answer.

So what's the measured nuclei count for this one? COc1ccc(NC(=O)CSc2nc(C)cc(C(F)(F)F)n2)cc1
95.3

// next record CCOC(=O)c1c(N)c(C#N)nn1-c1ccccc1C(=O)OC
81

Now the same for CC1(C)OC(=O)N(c2cccnc2)C1(C)O (configuration not stated)
101

Do the same for Cc1nnc(NC(=O)C2CCCO2)s1 (configuration not stated) please
97.4

Consider next the compound Cc1nn(-c2ccccc2)c2c1C(c1c(C)[nH]c(C#N)c1C)C(C#N)=C(N)O2 (configuration not stated) in the same way.
86

Same read-out for CCC(=O)Nc1nn(C)c2nc3c(C)cccc3cc12 ?
87.7

Another compound: O=C(CCCn1c(=S)[nH]c2cc3c(cc2c1=O)OCO3)N1CCN(c2ccccc2F)CC1
99.5

Then what about the compound COc1ccc(NC(=O)Nc2ccc(N3CCCC3=O)cc2)cc1OC ?
102

Also COc1ccccc1NS(=O)(=O)c1ccc(OC)c(OC)c1 ?
101

Same lookup for CCn1nnnc1SCC(=O)N1c2ccccc2CCc2ccccc21 , please.
96.3

Try this compound too: Cc1cc(=O)oc2cc(Oc3ncccn3)ccc12
93.1

Next entry: N#Cc1nc(COc2ccccc2Cl)oc1N1CCCCCC1
92.6

###

Measured inhibition of individual entries
Assay: blockers of RIG-like receptor reporter activation – cell-based, Sendai virus stimulus, luciferase, 10K MLSCN set, TLR/RLR signaling modifier project, primary screen (AID 602276);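 note: firefly luciferase from ISG56 promoter only with Renilla not read in this screen; 0% = Sendai virus plus DMSO and 100% = medium plus DMSO without virus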
Conditions: HEK293 RL24 IRF3 luciferase reporter, at 10 µM, stronger effect = higher value
Record the value in %, omitting the unit from your answer.

molecule	observed_value
CCOC(=O)C1CCN(c2c(NC3CCCCCCC3)c(=O)c2=O)CC1	9.6
Cc1onc(-c2ccccc2)c1C(=O)N1CCN(C(=O)c2ccco2)CC1	14.1
CC(C)(C)n1nnnc1CN(Cc1ccco1)Cc1cc2cc3c(cc2[nH]c1=O)OCO3	15.5
CCN(C#N)c1nc(NC(C)C)nc(NC(C)C)n1	0.243

Next up:
Request the reported inhibition associated with COc1cc(Cn2c(-c3nonc3N)nc3ccccc32)ccc1C
29.4

###

Form field: nuclei count (one value per entry).
Assay: reduction of polyQ htt aggregates in cells – imaging, exon1htt(103Q)mCFP cells, high-content imaging, primary screen (AID 483);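 note: compound exposure lasted 3 days before fixation; percent of the per-plate median nuclei count of sample wells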
Details: exon1htt(103Q)mCFP cell line, aggregate imaging, at 2 µM; measured here: cell count, toxicity
Output spec: scalar in %, unitless text.

Please report the recorded nuclei count for CCOC(=O)C1=C(CC)Nc2ccccc2N=C1NC(=O)Cn1cnc2ccccc2c1=O .
117

Another molecule: COc1ccc(NC(=O)c2cnc3n(c2=O)CCS3)cc1OC
92.4

Also need O=C(CN(Cc1ccc(F)cc1)C(=O)c1ccco1)NCc1ccc(F)cc1 , thanks.
90.9

Now the same for CCOc1cc(C2/C(=C(/O)c3ccc(OC(C)C)cc3)C(=O)C(=O)N2CCCOC)ccc1O (centres undefined)
111

###

Biological target: Muscarinic acetylcholine receptor M4 (Homo sapiens)
Test: M4-linked GIRK flux change, two-sided – cell-based, HEK293 M4/GIRK, thallium flux, BTC-AM, M4 allosteric agonist project, primary screen (AID 625);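 note: thallium influx through GIRK channels coupled to M4 in HEK293 cells with BTC-AM dye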
Details: at 10 µM, actives lie on both sides
Reported fluorescence slope values for the following molecules.
Would you mind answering with just the numeric figure?

molecule	observed_value
O=S(=O)(c1ccc(Br)s1)N1CCCCC1	0.00346
Cn1c2c(c(=O)n(C)c1=O)CN(CCCN1CCOCC1)CN2	0.00524
CC(C)(C)OC(=O)N1CCC(C(=O)N2CCCCCC2)CC1	0.00575

Fill blank: measured fluorescence slope of the molecule CCC(=O)N1CCc2cc(Br)cc(S(=O)(=O)N3CCCCCC3)c21 is ____.
0.00616

Now this one: Cc1ccc(Cn2nnc3c(=O)[nH]c(C4CCN(S(=O)(=O)c5ccc(F)cc5)CC4)nc32)cc1
0.00687

Proceed to O=C(COC(=O)c1ccc(Br)o1)Nc1ccc(S(=O)(=O)N2CCCC2)cc1
0.00525

Moving on to the next molecule: CCc1cc2c(NCCC(=O)O)nc(C)nc2s1
0.00598

Request: COC(=O)C(C)C1Sc2ccccc2NC1=O (stereo not given)
0.00684

Further, for Cc1ccc(-c2nnn(CC(=O)N(CC3CCCO3)C(C(=O)NC(C)(C)C)c3ccc(F)cc3)n2)o1 (stereo not given) ?
0.00486

Try COc1ccc(C2C(C#N)=C(C)NC3=C2C(=O)CC(C)(C)C3)c(OC)c1 (stereo not given) next.
0.00543

###

Entries and their cell count
Experiment: inhibitors of TNFa-induced NFkB p65 translocation, primary screen, imaging, HUVEC, MLSMR starter and 10KST1 sets (AID 438);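 note: compound added about 3h40 before a 20 min TNFalpha stimulation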
Conditions: HUVEC TNFa-induced p65 nuclear translocation; measured here: nuclei count (cytotoxicity indicator), at 2.08 µM
Quick one: just the number, no unit, thanks!

compound	observed_value
CCOC(=O)C1CCN(C(=O)CN(Cc2ccccc2)S(C)(=O)=O)CC1	370

I'd like to know its cell count. The compound in question is CN1CCN(c2nc3c(c(=O)[nH]c(=O)n3C)n2CCSc2nc3ccccc3s2)CC1
503

Would you mind doing O=C(CCNS(=O)(=O)c1ccc(Br)s1)N1CCCCC1 as well?
380

Same lookup for Cc1cc(C(=O)O)ccc1-n1c(C)ccc1C , please.
332

And then Cc1cnc(C(=O)Nc2ccc(N3CCOCC3)cc2)cn1 , what is it?
392

Cool, now c1ccc(-c2nn3nnnc3c3ccccc23)cc1
194

Then O=c1c2cnn(-c3ccccc3)c2ncn1/N=C/c1ccncc1 ?
476

Ok, now CC(C)c1cc(C(=O)Nc2cccnc2)no1
250

Queued: CC(C)(C)OC(=O)N1CCC(C(=O)N2CCCCCC2)CC1
383

Follow-up item: CC1CCCC(N2CCN(C(=O)c3ccc(F)cc3)CC2)C1 (stereo not given)
625

What do we get for CCC(=O)c1cc(F)c(N2CCN(C(=O)c3ccco3)CC2)cc1C ?
611

Note, next up: CN(C)S(=O)(=O)N1CCN(C(=O)N(c2ccccc2)c2ccccc2)CC1
352

Then this compound: O=C1CC(c2ccccc2)CC(O)=C1C=NCCCN1CCOCC1 (stereo not given)
307

Entry to check: O=C(COC(=O)c1ccc(Br)o1)Nc1ccc(S(=O)(=O)N2CCCC2)cc1
619

Try the compound COc1ccc(Cl)cc1NC(=O)CSc1nncn1-c1cccnc1
391
